These entries and their values trace back to patent US9546152B2.

- ASSAYED SYSTEM: human orexin-2 receptor (Homo sapiens (Human), UniProt O43614)
- Sequence (O43614 whole entry): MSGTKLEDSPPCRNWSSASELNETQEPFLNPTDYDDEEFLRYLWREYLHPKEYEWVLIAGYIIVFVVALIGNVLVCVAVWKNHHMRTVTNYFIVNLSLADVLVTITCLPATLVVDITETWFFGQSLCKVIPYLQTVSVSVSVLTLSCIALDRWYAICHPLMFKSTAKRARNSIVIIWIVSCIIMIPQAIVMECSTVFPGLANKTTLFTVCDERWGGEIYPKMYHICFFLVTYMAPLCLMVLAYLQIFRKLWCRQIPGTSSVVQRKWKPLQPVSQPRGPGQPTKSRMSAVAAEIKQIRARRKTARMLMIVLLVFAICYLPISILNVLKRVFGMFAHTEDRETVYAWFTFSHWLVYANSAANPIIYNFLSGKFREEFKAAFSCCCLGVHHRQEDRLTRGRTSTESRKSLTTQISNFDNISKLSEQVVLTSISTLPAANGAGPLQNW
- TEST NAME: radioligand binding assay, orexin-2 receptor
- PARTICULARS: membranes prepared from CHO cells expressing the OX2 receptor; read-out: hOX2R BIND hKi
Can you tell me pKi for the items I'm about to list?
Answers are plain numbers, as −log10 of the molar value.

Check out these entries, answers already filled in.
Which pKi is listed for COc1c(C#N)ccnc1O[C@@H]1CC[C@@H](C)N(C(=O)c2ccccc2C2CCC2)C1 [Example 105] ?
9.70

Sample Cc1c(C#N)ccnc1O[C@@H]1CC[C@@H](C)N(C(=O)c2cccnc2-c2ccccc2)C1 [Example 60] — what was its pKi?
8.59

Query: pKi; subject: Cc1c(C#N)ccnc1O[C@@H]1CC[C@@H](C)N(C(=O)c2cc(F)ccc2-n2nccn2)C1 [Example 69]
9.22

If you can, please state the reported pKi value of COc1c(C#N)ccnc1O[C@@H]1CC[C@@H](C)N(C(=O)c2ccccc2-n2nccn2)C1 [Example 96] .
9.52

Go through the list and state pKi for each entry.
1. COc1c(C#N)ccnc1O[C@@H]1CC[C@@H](C)N(C(=O)c2cc(F)ccc2-n2nccn2)C1 [Example 99]
2. Cc1c(C#N)ccnc1O[C@@H]1CC[C@@H](C)N(C(=O)c2ccc(OCF)nc2-n2nccn2)C1 [Example 88]
3. COc1ccc(C(=O)N2C[C@H](Oc3nccc(C#N)c3C)CC[C@H]2C)c(OC)n1 [Example 73]

[9.40, 8.04, 7.49]

Batch request: pKi per item, same order as input.
1. Cc1c(C#N)ccnc1O[C@@H]1CC[C@@H](C)N(C(=O)c2ccccc2-c2ncco2)C1 [Example 27]
2. COc1ccc(C(=O)N2C[C@H](Oc3nccc(C#N)c3C)CC[C@H]2C)c(SC)n1 [Example 84]
3. Cc1c(C#N)ccnc1O[C@@H]1CC[C@@H](C)N(C(=O)c2ccc(F)cc2-n2nccn2)C1 [Example 9]

1: 9.52; 2: 8.70; 3: 9.30
